Every entry's value here was drawn from PubChem BioAssay AID2685.

Record form. Attribute: cell number change. Fill in for each entry.
MEASUREMENT_DESCRIPTION: qHTS Assay for Lipid Storage Modulators in Drosophila S3 Cells;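 also: cells counted by Cell Tracker Red CMTPX staining in the red channel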
CONDITION_DESCRIPTION: BODIPY lipid droplet fluorescence, 18-24 h, cells fed with added oleic acid; measured here: cell count max response
Hit rate of the full screen: of about 320,000 compounds, about 2,100 (0.66%) were called active. Inconclusive results (about 53%) are left out. The list comes from a sample in which actives are over-represented; it also holds close analogues and randomly drawn compounds.
Write the number in % without appending the unit.

**Q:** Using the record for Cc1cccc(C)c1N(CC(=O)NCc1ccccc1)C(=O)c1csnn1 , report its cell number change.
**A:** -7.94

**Q:** Entry C=CCn1c(COc2cc(C)ccc2C(C)C)nnc1SCC(=O)c1c(N)n(C)c(=O)n(C)c1=O : reported cell number change = ?
**A:** 25.2

**Q:** Recorded cell number change for CS(=O)(=O)N(Cc1ccccc1)c1ccc(C(=O)N2CCc3ccccc3C2)cc1 , please?
**A:** 13.2

**Q:** Requested read-out: cell number change. Entry: Cc1cccc(C)c1NC(=O)N1C2CCC1CC(O)(c1cccnc1)C2 (centres undefined)
**A:** 9.99

**Q:** Tell me the measured cell number change of Cc1cccc(NC(=S)NCCc2ccc(S(N)(=O)=O)cc2)c1C , please.
**A:** -9.26

**Q:** What value of cell number change has been reported for the following compound? COc1ccc(C(=O)OCC(=O)Nc2cc(C)c(C)cc2[N+](=O)[O-])cc1
**A:** -12.7

**Q:** If you can, please state the reported cell number change value of COCCN=c1scc(-c2ccc3c(c2)NC(=O)CO3)n1/N=C(\C)c1ccc(O)cc1 .
**A:** 3.12

**Q:** Looking for the measured cell number change of Cc1ccc(CCNC(=O)CCNS(=O)(=O)c2ccc3c(c2)oc(=O)n3C)cc1 , can you help?
**A:** 0.906

**Q:** Quick one: cell number change for Cc1cc(C(=O)N/N=C/c2cccn2C)no1 ?
**A:** 6.61
